target: mouse c-fms (Mus musculus); construct: Macrophage-like cell line BAC-1.2F5 which expresses c-fms as a M-CSF receptor on cell membranes; endogenous in cells; test: Inhibition of c-fms autophosphorylation in macrophage-like cell line BAC-1.2F5 by M-CSF stimulation (ELISA); conditions: BAC-1.2F5 cells, human recombinant M-CSF 50 ng/ml, read-out: c-fms autophosphorylation 50% inhibitory concentration (IC50)
Sequence (P09581 20-977): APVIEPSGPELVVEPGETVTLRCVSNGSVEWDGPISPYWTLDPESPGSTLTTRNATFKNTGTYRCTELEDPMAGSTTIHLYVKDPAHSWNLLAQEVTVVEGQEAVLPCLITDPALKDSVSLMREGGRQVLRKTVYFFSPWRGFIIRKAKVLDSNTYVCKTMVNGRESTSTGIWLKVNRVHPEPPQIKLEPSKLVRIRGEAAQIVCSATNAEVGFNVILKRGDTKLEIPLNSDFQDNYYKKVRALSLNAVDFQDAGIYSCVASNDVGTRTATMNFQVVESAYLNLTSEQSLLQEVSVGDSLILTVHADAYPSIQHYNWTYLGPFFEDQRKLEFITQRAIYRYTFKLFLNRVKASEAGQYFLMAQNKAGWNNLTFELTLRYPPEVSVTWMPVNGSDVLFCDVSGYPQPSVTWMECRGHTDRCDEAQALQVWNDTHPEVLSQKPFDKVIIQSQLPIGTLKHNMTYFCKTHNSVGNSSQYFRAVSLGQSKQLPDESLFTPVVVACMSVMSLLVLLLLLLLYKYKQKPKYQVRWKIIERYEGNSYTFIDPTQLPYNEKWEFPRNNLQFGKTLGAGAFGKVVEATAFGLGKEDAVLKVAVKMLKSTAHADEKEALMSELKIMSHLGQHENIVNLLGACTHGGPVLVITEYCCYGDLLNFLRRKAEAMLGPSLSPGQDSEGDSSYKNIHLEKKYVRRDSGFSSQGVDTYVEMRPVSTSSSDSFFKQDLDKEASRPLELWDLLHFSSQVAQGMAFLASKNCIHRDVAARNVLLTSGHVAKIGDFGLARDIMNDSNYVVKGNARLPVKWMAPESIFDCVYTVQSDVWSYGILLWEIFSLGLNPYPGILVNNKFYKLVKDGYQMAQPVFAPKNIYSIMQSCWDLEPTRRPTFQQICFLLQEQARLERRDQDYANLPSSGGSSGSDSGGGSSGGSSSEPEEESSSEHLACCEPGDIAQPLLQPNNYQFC
ASSAY READOUT: IC50 (nM)

Recorded IC50, per entry:
# MOLECULE, UNIT OF MEASURE, ENDPOINT VALUE
records = [
    ("COc1cc2nccc(Oc3ccc(NC(=O)N[C@@H](C)c4nccs4)c(F)c3)c2cc1OC", "nM", 3),
    ("COc1cc2nccc(Oc3ccc(NC(=O)NC(C)c4nccs4)cc3)c2cc1OC (stereo not shown)", "nM", 4.7),
    ("COc1cc2nccc(Oc3ccc(NC(=O)NC(C)c4ccc(F)cc4)c(F)c3)c2cc1OC (stereo not shown)", "nM", 6.5),
]

A: COc1cc2nccc(Oc3ccc(NC(=O)N[C@@H](C)c4ccc(Cl)cc4)cc3)c2cc1OC
B: COc1cc2nccc(Oc3cc(C)c(NC(=O)N[C@@H](C)c4ccc(F)cc4)cc3C)c2cc1OC
C: COc1cc2nccc(Oc3ccc(NC(=O)NC(C)c4nc(C)c(C)s4)c(F)c3)c2cc1OC (stereo not shown)
D: CC[C@@H](NC(=O)Nc1ccc(Oc2ccnc3cc(OC)c(OC)cc23)cc1)c1ccccc1
E: COc1cc2nccc(Oc3cc(C)c(NC(=O)N[C@H](C)c4cccc(Br)c4)cc3C)c2cc1OC
# desc sort on IC50 across 5 molecules Give your ranking as a list of the labels in the requested order.
E, C, B, D, A
(E: 193 nM, C: 38.3 nM, B: 22.5 nM, D: 5.7 nM, A: 3.8 nM)
